biological target: G-protein coupled receptor 6 (Homo sapiens, UniProt P46095); assay: Modulator activity at GPR6 receptor (unknown origin) expressed in CHO-K1 cells assessed as inhibition of constitutive cAMP activity incubated for 45 mins by Eu-cAMP tracer based HTRF Ultra cAMP assay
Sequence (P46095 whole entry): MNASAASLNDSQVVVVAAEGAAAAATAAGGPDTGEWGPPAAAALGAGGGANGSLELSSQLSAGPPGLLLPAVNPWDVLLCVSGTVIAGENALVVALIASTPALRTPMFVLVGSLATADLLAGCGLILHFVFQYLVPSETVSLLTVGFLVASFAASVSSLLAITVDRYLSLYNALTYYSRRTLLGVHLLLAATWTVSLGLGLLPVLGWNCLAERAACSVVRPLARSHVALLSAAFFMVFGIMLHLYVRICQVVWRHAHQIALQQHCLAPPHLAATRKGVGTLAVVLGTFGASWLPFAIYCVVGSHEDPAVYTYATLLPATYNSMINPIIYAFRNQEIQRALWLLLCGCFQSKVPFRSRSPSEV
Quantity Name: pEC50
pEC50 here is simply -log10 of the concentration when that concentration is written in mol/L.

Using the record for `N#Cc1ccc(N2CCC(Oc3ccc(F)cc3F)CC2)c(NC(=O)c2cccn(Cc3ccccc3)c2=O)c1` , report its pEC50.
5.70

Next molecule up: `Cn1cccc(C(=O)Nc2cc(C#N)ccc2N2CCC(Oc3cc(F)cc(F)c3)CC2)c1=O`
5.70

Then this molecule: `Cc1nc(C(=O)Nc2cc(C#N)ccc2N2CCC(Oc3ccc(F)cc3F)CC2)no1`
5.70
